assay: Solubility of clotrimazole in PEG-20-oleyl ether receptor fluid (HPLC); assay type: physicochemical; conditions: aqueous PEG-20-oleyl ether surfactant solution, 37 °C, aqueous with cosolvent or surfactant or cyclodextrin, thermodynamic from solid, 2.0% PEG-20-oleyl ether in water, read-out: Solubility of clotrimazole (Mean ± SEM, n = 3)
measurement_kind: solubility at 24 h (µg/mL)
Answer with a number only, understood to be in µg/mL.

Name the recorded solubility at 24 h for Clc1ccccc1C(c1ccccc1)(c1ccccc1)n1ccnc1 [clotrimazole] .
499

* * *

Assay: Solubility of clotrimazole in PEG-20-oleyl ether receptor fluid (HPLC)
Type: physicochemical
Details: aqueous PEG-20-oleyl ether surfactant solution, 37 °C, aqueous with cosolvent or surfactant or cyclodextrin, thermodynamic from solid, 1.0% PEG-20-oleyl ether in water, read-out: Solubility of clotrimazole (Mean ± SEM, n = 3)
Experimental: Aqueous solutions of PEG-20-oleyl ether in concentrations of 0.5%, 1%, 2%, and 5% were prepared. Excess clotrimazole was added to vials containing 10 mL of surfactant solution. […] The supernatant was analyzed for drug concentration by High Performance Liquid Chromatography (HPLC). […] The chromatography conditions yielded a linear standard curve (R^2=0.9995). From the standard curve, the solubility of clotrimazole in different concentrations of PEG-20-oleyl ether was quantitatively determined.
measurement_kind: solubility at 24 h (µg/mL)
// return numeric value only (unit: µg/mL, not printed)

Any idea what solubility at 24 h was measured for Clc1ccccc1C(c1ccccc1)(c1ccccc1)n1ccnc1 [clotrimazole] ?
191
